- System: U-87 MG
- Method: 3H thymidine proliferation assay, U-87 MG
- Format: cell-based, human
- Particulars: 3H thymidine method, 72 h incubation; read-out: EC50, U-87 MG
Value Kind: EC50 (pM)
Write down the numeric answer in pM and omit the unit.

Exercise: Consider the compound CC[C@H](C)[C@H](NC(=O)[C@H]1CCCCN1C)C(=O)N(C)[C@H](C[C@@H](OC)c1nc(C(=O)N[C@@H](Cc2ccc(N)cc2)CC(C)C(=O)O)cs1)C(C)C (stereo partly drawn) [Compound 51] and give its measured EC50.
Solution: 750

Exercise: Consider the compound CC[C@H](C)[C@H](NC(=O)[C@H]1CCCCN1C)C(=O)N(COC)[C@H](C[C@@H](OC)c1nc(C(=O)N[C@@H](Cc2ccccc2)C(=O)OC)cs1)C(C)C [Compound 29c] and give its measured EC50.
Solution: 510
